Where do the numbers come from? From patent US20260078099A1.

assay: LNP zeta potential; assay type: physicochemical; conditions: mRNA LNP
hey, just use t if measured Zeta potential (mV) is less than -0.7 mV, otherwise f

Solved entries:
molecule	qualitative.label
CCCCCCC(CCCCCC)OC(=O)CCCCCCCCCNC(=O)C(CCCCCCCCCC(=O)OC(CCCCCC)CCCCCC)N(CCCN1CCCC1)C(=O)CCCN1CCCC1 (stereo not shown)	t
CCCCCCCCNC(=O)C(CCCCC)N(CCCN(C)C)C(=O)CCCCCCC(=O)OC(CCCCCCCC)CCCCCCCC (stereo not shown)	f
CCCCCCCC(C(=O)NCCCCCCCCCC(=O)OC(CCCCCC)CCCCCC)N(CCn1ccnc1)C(=O)CCCCCCCCCC(=O)OC(CCCCCC)CCCCCC (stereo not shown)	f
CCCCCCC(CCCCCC)OC(=O)CCCCCCCCCNC(=O)C(CCCCCCCCCC(=O)OC(CCCCCC)CCCCCC)N(CCCN(C)C)C(=O)CCCN(C)C (stereo not shown)	t
CCCCCCC(CCCCCC)OC(=O)CCCCCCCCCNC(=O)C(CCCCCCCCCC(=O)OC(CCCCCC)CCCCCC)N(CCCN1CCN(C)CC1)C(=O)CCCN1CCN(C)CC1 (stereo not shown)	t

We now examine a further molecule.
Exercise: Confirm or reject: Zeta potential (mV) of CCCCCCCCC(C(=O)NCCCCCCCCCC(=O)OCCCCCC)N(CCCN(C)C)C(=O)CCCCCCCCCC(=O)OC(CCCCCC)CCCCCC (stereo not shown) lies strictly below -0.7 mV
Key: f
